Each entry below lists one item and its recorded relative viability value.
- Tested on: G401
- experimentSummary: relative viability vs DMSO control (72 h) (fraction); higher = more viable cells
- conditionSummary: 0.04115 µM
Reply with the value as a number alone.

CCN1C(=O)N(c2c(F)c(OC)cc(OC)c2F)Cc2cnc3[nH]c(CN4CCOCC4)cc3c21 :: 0.7
CC(C)(C)c1nc(-c2cccc(NS(=O)(=O)c3c(F)cccc3F)c2F)c(-c2ccnc(N)n2)s1 :: 0.955
O=C(Nc1nc2cccc(-c3ccc(CN4CCS(=O)(=O)CC4)cc3)n2n1)C1CC1 :: 0.995

We next turn to a different compound, shown below.
Input CNC(=O)c1nnc(NC(=O)C2CC2)cc1Nc1cccc(-c2ncn(C)n2)c1OC . Output relative viability: 1.02

---

- Test system: MES-SA
- experimentSummary: relative viability vs DMSO control (72 h) (fraction); higher = more viable cells
- conditionSummary: 0.00017 µM
recordedMetric: relative viability
// no unit, no text: just the number

Answered examples (3):
COC(=O)[C@@]1(O)C[C@H]2O[C@]1(C)n1c3ccccc3c3c4c(c5c6ccccc6n2c5c31)C(=O)NC4 [K-252a] :: 0.97
CNC(=O)c1nnc(NC(=O)C2CC2)cc1Nc1cccc(-c2ncn(C)n2)c1OC :: 0.926
CC1(C)CC=C(c2nc(C3CC(C)(C)OC(C)(C)C3)ccc2NC(=O)c2nc(C#N)c[nH]2)CC1 :: 0.945

The reported value for CC(C)NC[C@@H](C(=O)N1CCN(c2ncnc3c2[C@H](C)C[C@H]3O)CC1)c1ccc(Cl)cc1 in terms of relative viability is 0.935

---

Reported relative viability values for a set of molecules
- Test system: SW1353
- experimentSummary: relative viability vs DMSO control (72 h) (fraction); higher = more viable cells
- conditionSummary: 0.00051 µM

Lab note: measured relative viability of CCC(=O)N1CC[C@H](Nc2ncnc3c2CN(c2cnc(OC)c(C(F)(F)F)c2)CC3)C1 was 1.04

---

- Tested on: HT1080
- experimentSummary: relative viability vs DMSO control (72 h) (fraction); higher = more viable cells
- conditionSummary: 0.3704 µM
recordedMetric: relative viability
// return just the number, without any unit appended

Known relative viability results, listed for orientation:
C[C@]12O[C@H](C[C@]1(O)CO)n1c3ccccc3c3c4c(c5c6ccccc6n2c5c31)CNC4=O [Lestaurtinib] :: 0.877
CC#CC(=O)N1CCC[C@H]1c1nc(-c2ccc(C(=O)Nc3ccccn3)cc2)c2c(N)nccn12 [Acalabrutinib] :: 1.07

Turning to the following molecule.
Value of measured relative viability for the entry O=C(Nc1ccc(OC(F)(F)Cl)cc1)c1cnc(N2CC[C@@H](O)C2)c(-c2cc[nH]n2)c1 [Asciminib] : 1

---

- Tested on: VA-ES-BJ
- experimentSummary: relative viability vs DMSO control (72 h) (fraction); higher = more viable cells
- conditionSummary: 0.00152 µM
recordedMetric: relative viability
Reply with the value as a number alone.

COc1cc(CCc2cc(NC(=O)c3ccc(N4CC(C)NC(C)C4)cc3)n[nH]2)cc(OC)c1 (stereo not drawn) [AZD-4547] :: 1.03
CC[C@@H]1CN(C(=O)NCC(F)(F)F)C[C@@H]1c1cnc2cnc3[nH]ccc3n12 [Upadacitinib] :: 1.07
CO[C@H]1C[C@@H]2CC[C@@H](C)[C@@](O)(O2)C(=O)C(=O)N2CCCC[C@H]2C(=O)O[C@H]([C@H](C)C[C@@H]2CC[C@@H](OCCO)[C@H](OC)C2)CC(=O)[C@H](C)/C=C(\C)[C@@H](O)[C@@H](OC)C(=O)[C@H](C)C[C@H](C)/C=C/C=C/C=C/1C [Certican] :: 0.643
COCCNc1cc(NC(=O)N2CCCc3cc(CN4CCN(C)CC4=O)c(C=O)nc32)ncc1C#N [Roblitinib] :: 1
CCN1C(=O)N(c2c(F)c(OC)cc(OC)c2F)Cc2cnc3[nH]c(CN4CCOCC4)cc3c21 [Pemigatinib] :: 1.02

Lab book: relative viability of CCN(CC)CCNC(=O)c1c(C)[nH]c(/C=C2\C(=O)Nc3ccc(F)cc32)c1C [Sunitinib] noted as 1.04

So, CN1CCN(c2ccc(C(=O)Nc3n[nH]c4ccc(Cc5cc(F)cc(F)c5)cc34)c(NC3CCOCC3)c2)CC1 [Entrectinib] ? Its relative viability was 1.06

Lab book: relative viability of CC#CC(=O)N1CCC[C@H]1c1nc(-c2ccc(C(=O)Nc3ccccn3)cc2)c2c(N)nccn12 [Acalabrutinib] noted as 1.03

---

Known relative viability of a selection of compounds
- System: A204
- experimentSummary: relative viability vs DMSO control (72 h) (fraction); higher = more viable cells
- conditionSummary: 0.04115 µM
Reply with the value as a number alone.

Some entries whose results are on file:
Clc1ccc(Nc2nnc(Cc3ccncc3)c3ccccc23)cc1 :: 1.02
COCCNc1cc(NC(=O)N2CCCc3cc(CN4CCN(C)CC4=O)c(C=O)nc32)ncc1C#N :: 1.07
CCN1C(=O)N(c2c(F)c(OC)cc(OC)c2F)Cc2cnc3[nH]c(CN4CCOCC4)cc3c21 :: 0.709
COc1cc(CCc2cc(NC(=O)c3ccc(N4CC(C)NC(C)C4)cc3)n[nH]2)cc(OC)c1 (centres undefined) :: 0.841
Cn1cc(C2=C(c3cn(C4CCN(Cc5ccccn5)CC4)c4ccccc34)C(=O)NC2=O)c2ccccc21 :: 1.07

Notebook: C[C@]12O[C@H](C[C@]1(O)CO)n1c3ccccc3c3c4c(c5c6ccccc6n2c5c31)CNC4=O , relative viability read as 0.788

Measured relative viability of CC#CC(=O)N1CCC[C@H]1c1nc(-c2ccc(C(=O)Nc3ccccn3)cc2)c2c(N)nccn12 : 1.09

Lab note: O=C1NC(=O)[C@@H](c2cn3c4c(cccc24)CCC3)[C@@H]1c1c[nH]c2ccccc12 [Tivantinib] gave relative viability of 1.07

// COc1cc(Nc2ncc(F)c(Nc3ccc4c(n3)N(COP(=O)(O)O)C(=O)C(C)(C)O4)n2)cc(OC)c1OC : relative viability value = 1.02

Record CC(C)(C)c1nc(-c2cccc(NS(=O)(=O)c3c(F)cccc3F)c2F)c(-c2ccnc(N)n2)s1 . Reported relative viability: 0.978

// relative viability value for CO[C@H]1C[C@@H]2CC[C@@H](C)[C@@](O)(O2)C(=O)C(=O)N2CCCC[C@H]2C(=O)O[C@H]([C@H](C)C[C@@H]2CC[C@@H](OCCO)[C@H](OC)C2)CC(=O)[C@H](C)/C=C(\C)[C@@H](O)[C@@H](OC)C(=O)[C@H](C)C[C@H](C)/C=C/C=C/C=C/1C : 0.517

Measured relative viability, CC(C)Oc1ccc(-c2nn([C@@H](C)c3oc4ccc(F)cc4c(=O)c3-c3cccc(F)c3)c3ncnc(N)c23)cc1F : 1.09

O=S(=O)(c1cccc2cnccc12)N1CCCNCC1 yielded relative viability of 1.01

Given item COc1cc(OC)c(/C=C/S(=O)(=O)Cc2ccc(OC)c(NCC(=O)O)c2)c(OC)c1 , the value recorded as its relative viability is 1.07

---

- System: G401
- experimentSummary: relative viability vs DMSO control (72 h) (fraction); higher = more viable cells
- conditionSummary: 0.00017 µM
recordedMetric: relative viability
// return a plain number; no unit text

Study these solved cases before continuing.
Cc1cc2cc(Oc3ccnc(Nc4cccc(CS(=O)(=O)NCCN(C)C)c4)n3)ccc2[nH]1 :: 1.02
COc1cc(OC)c(/C=C/S(=O)(=O)Cc2ccc(OC)c(NCC(=O)O)c2)c(OC)c1 :: 1.01
CC(C)(O)CNc1nc(Nc2ccnc(C(F)(F)F)c2)nc(-c2cccc(C(F)(F)F)n2)n1 :: 0.984
CC(C)Oc1ccc(-c2nn([C@@H](C)c3oc4ccc(F)cc4c(=O)c3-c3cccc(F)c3)c3ncnc(N)c23)cc1F :: 1.02
O=C1NC(=O)[C@@H](c2cn3c4c(cccc24)CCC3)[C@@H]1c1c[nH]c2ccccc12 [Tivantinib] :: 1
C[C@H](Nc1ncnc2nc[nH]c12)c1cc2cccc(Cl)c2c(=O)n1-c1ccccc1 :: 1.07

Sure, the documented relative viability for CN1CCN(c2ccc(C(=O)Nc3n[nH]c4ccc(Cc5cc(F)cc(F)c5)cc34)c(NC3CCOCC3)c2)CC1 is 1.04

Entry CCC(=O)N1CC[C@H](Nc2ncnc3c2CN(c2cnc(OC)c(C(F)(F)F)c2)CC3)C1 — recorded relative viability = 1.02

// relative viability value for CC[C@@H]1CN(C(=O)NCC(F)(F)F)C[C@@H]1c1cnc2cnc3[nH]ccc3n12 : 1.03

---

- System: SYO-1
- experimentSummary: relative viability vs DMSO control (72 h) (fraction); higher = more viable cells
- conditionSummary: 0.00457 µM
Parameter: relative viability. Scope: all listed entries.
Respond numerically, and do not add a unit to the figure.

Example cases with answers are listed next.
N#CCNC(=O)c1ccc(-c2ccnc(Nc3ccc(N4CCOCC4)cc3)n2)cc1 :: 1.02
COCCNc1cc(NC(=O)N2CCCc3cc(CN4CCN(C)CC4=O)c(C=O)nc32)ncc1C#N :: 0.92
O=C(Nc1ccc(OC(F)(F)Cl)cc1)c1cnc(N2CC[C@@H](O)C2)c(-c2cc[nH]n2)c1 :: 0.927

Continue with the next molecule.
relative viability recorded for this molecule, CC(C)Oc1ccc(-c2nn([C@@H](C)c3oc4ccc(F)cc4c(=O)c3-c3cccc(F)c3)c3ncnc(N)c23)cc1F , is 1.03
